For each of the compounds below, state its IC50.
biological target: protein-protein interaction between Kras and SOS1 (biotin-tagged human Kras loaded with GDP, His-tagged human SOS1) (Homo sapiens (Human), UniProt P01116, G12D); experiment: Protein-protein interaction inhibition between Kras and SOS1 (KrasG12D-SOS PPI) using AlphaScreen; assay type: biochemical; settings: AlphaScreen; biotin-tagged human Kras loaded with GDP, His-tagged human SOS1; read-out: KRAS G12D-SOS PPI IC50;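 note: kras produced in E. coli, Ni-coupled donor beads and streptavidin acceptor beads, excitation 680 nm with emission detected at 520–620 nm via singlet oxygen transfer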
Numbered stars: 1 amine (or outer) side, 2 acyl side, 3 side chain; on linkers, the order of the positions; unused ones are H or OH. Bridge positions count the residues as written; N and C are the ends. Square brackets hold non-standard residues; d marks the D form. Peptide text beside a SMILES is read from it. * marks the point of attachment. hPhe(3,5-F2-4-CF3) = N[C@@H](CCc1cc(F)c(C(F)(F)F)c(F)c1)C(=O)O; hPhe(3-Cl-4-CF3) = N[C@@H](CCc1ccc(C(F)(F)F)c(Cl)c1)C(=O)O; NEtPhe(4-CF3) = CCN[C@@H](Cc1ccc(C(F)(F)F)cc1)C(=O)O; 3Oxa8azabicyclo(3.2.1)octane = C1CC2COCC1N2*; NMePhe(4-Cl) = CN[C@@H](Cc1ccc(Cl)cc1)C(=O)O; NMePhe(4-Me) = CN[C@@H](Cc1ccc(C)cc1)C(=O)O; NMedβ3hAla = C[C@H](CC(=O)[*:2])N(C)[*:1]; NMeGly(cPent) = CN[C@H](C(=O)O)C1CCCC1; NMeAla(cPr) = CN[C@@H](CC1CC1)C(=O)O; NMeCha = CN[C@@H](CC1CCCCC1)C(=O)O; Hyp = O=C(O)[C@@H]1C[C@@H](O)CN1; NMeChg = CN[C@H](C(=O)O)C1CCCCC1; NMeF = CN[C@@H](Cc1ccccc1)C(=O)O; NMeI = CC[C@H](C)[C@H](NC)C(=O)O; NMeD = CN[C@@H](CC(=O)O)C(=O)O; NMeL = CN[C@@H](CC(C)C)C(=O)O; NEtAla = CCN[C@@H](C)C(=O)O; NMeNva = CCC[C@H](NC)C(=O)O; NMeV = CN[C@H](C(=O)O)C(C)C; d(β3hA) = C[C@@H](N)CC(=O)O; NMeS = CN[C@@H](CO)C(=O)O; NMeA = CN[C@@H](C)C(=O)O; Piperidide = C1CCN(*)CC1; Pyrrolidide = C1CCN(*)C1; Ac5c = NC1(C(=O)O)CCCC1; Aze = O=C(O)[C@@H]1CCN1; CH2CMe2OH = CC(C)(O)C*; Aib = CC(C)(N)C(=O)O; Isopentyl = CC(C)CC*; NEtG = CCNCC(=O)O; Sar = CNCC(=O)O; Propyl = CCC*
# value in nM; strip the unit string

Challenge: Give reported IC50 value for CCC[C@H]1C(=O)N[C@@H]([C@@H](C)CC)C(=O)N(C)CC(=O)N(C)CC(=O)N(C)[C@@H](Cc2ccc(C)cc2)C(=O)N(C)CC(=O)N[C@@H](CCc2cc(F)c(C(F)(F)F)c(F)c2)C(=O)N2C[C@H](OCC)C[C@H]2C(=O)NC2(CCCC2)C(=O)N(C)[C@@H](C2CCCCC2)C(=O)N(C)[C@H](C(=O)N2CCCC2)CC(=O)N1C [Compound 1224] ([NMeNva]I[Sar][Sar][NMePhe(4-Me)][Sar][hPhe(3,5-F2-4-CF3)][Hyp](Et)[Ac5c][NMeChg][NMeD]-Pyrrolidide; lactam N-11)
Response given: 0.67

Challenge: Give reported IC50 value for CC[C@H](C)[C@@H]1NC(=O)[C@H](CC2CC2)N(C)C(=O)C[C@@H](C)NC(=O)[C@H](C(C)C)N(C)C(=O)C2(CCCC2)NC(=O)[C@@H]2CCCN2C(=O)[C@H](CCc2ccc(C(F)(F)F)c(Cl)c2)NC(=O)CN(C)C(=O)[C@H](CC2CCCCC2)N(C)C(=O)[C@@H]2CCN2C(=O)[C@H](C)N(C)C1=O [Compound 771] (cyclo([Ac5c][NMeV][d(β3hA)][NMeAla(cPr)]I[NMeA][Aze][NMeCha][Sar][hPhe(3-Cl-4-CF3)]P))
Response given: 25

Challenge: Give reported IC50 value for CC[C@H](C)[C@@H]1NC(=O)[C@H](CC(C)C)N(C)C(=O)C[C@@H](C(=O)N2CCCCC2)N(C)C(=O)[C@H](C(C)C)N(C)C(=O)C2(CCCC2)NC(=O)[C@@H]2CCCN2C(=O)[C@H](CCc2ccc(C(F)(F)F)c(Cl)c2)NC(=O)CN(C)C(=O)[C@H](COC)N(C)C(=O)[C@@H]2CCN2C(=O)[C@H](C)N(C)C1=O [Compound 487] ([NMeL]I[NMeA][Aze][NMeS](Me)[Sar][hPhe(3-Cl-4-CF3)]P[Ac5c][NMeV][NMeD]-Piperidide; lactam N-11)
Response given: 5.9

Challenge: Give reported IC50 value for CC[C@H](C)[C@@H]1NC(=O)[C@H](C)N(C)C(=O)C[C@@H](C)NC(=O)[C@H](CC(C)C)N(C)C(=O)[C@H](Cc2ccccc2)N(C)C(=O)[C@H](CC(C)C)NC(=O)[C@H](CCc2ccc(C(F)(F)F)c(Cl)c2)NC(=O)CN(C)C(=O)[C@H](Cc2ccc(Cl)cc2)N(C)C(=O)CN(C)C(=O)CN(C)C1=O [Compound 2088] (cyclo(I[Sar][Sar][NMePhe(4-Cl)][Sar][hPhe(3-Cl-4-CF3)]L[NMeF][NMeL][d(β3hA)][NMeA]))
Response given: 30

Challenge: Give reported IC50 value for CC[C@H](C)[C@@H]1NC(=O)[C@H](CC(C)C)N(C)C(=O)C[C@@H](C)NC(=O)[C@H](CC(C)C)N(C)C(=O)C(C)(C)NC(=O)[C@H](COCC(C)(C)O)N(C)C(=O)[C@H](CCc2ccc(C(F)(F)F)c(Cl)c2)NC(=O)CN(C)C(=O)[C@H](COCCC(C)C)N(C)C(=O)CN(C)C(=O)CN(CC)C1=O [Compound 1519] (cyclo([Aib][NMeL][d(β3hA)][NMeL]I[NEtG][Sar][NMeS](Isopentyl)[Sar][hPhe(3-Cl-4-CF3)][NMeS](CH2CMe2OH)))
Response given: 120

Challenge: Give reported IC50 value for CC[C@H](C)[C@@H]1NC(=O)[C@H](CC(C)C)N(C)C(=O)C[C@@H](C)NC(=O)[C@H](C2CCCC2)N(C)C(=O)C2(CCCC2)NC(=O)[C@@H]2CCCN2C(=O)[C@H](CCc2ccc(C(F)(F)F)c(Cl)c2)NC(=O)CN(C)C(=O)[C@H](Cc2ccc(C)cc2)N(C)C(=O)[C@@H]2CCN2C(=O)[C@H](C)N(CC)C1=O [Compound 1023] (cyclo([Ac5c][NMeGly(cPent)][d(β3hA)][NMeL]I[NEtAla][Aze][NMePhe(4-Me)][Sar][hPhe(3-Cl-4-CF3)]P))
Response given: 20

Challenge: Give reported IC50 value for CC[C@H](C)[C@@H]1NC(=O)[C@H](CC(C)C)N(C)C(=O)C[C@@H](C(=O)N2CCCC2)NC(=O)[C@H]([C@@H](C)CC)N(C)C(=O)C2(CCCC2)NC(=O)[C@@H]2CCCN2C(=O)[C@H](CCc2ccc(C(F)(F)F)c(Cl)c2)NC(=O)CN(C)C(=O)[C@H](CC2CCCCC2)N(C)C(=O)[C@@H]2CCN2C(=O)[C@H](C)N(C)C1=O [Compound 453] ([NMeL]I[NMeA][Aze][NMeCha][Sar][hPhe(3-Cl-4-CF3)]P[Ac5c][NMeI]D-Pyrrolidide; lactam N-11)
Response given: 17

Challenge: Give reported IC50 value for CCCOC[C@H]1C(=O)N(C)CC(=O)N[C@@H](CCc2ccc(C(F)(F)F)c(Cl)c2)C(=O)N2CCC[C@H]2C(=O)NC2(CCCC2)C(=O)N(C)[C@@H](C2CCCC2)C(=O)N(C)[C@H](C(=O)N2C3CCC2COC3)CC(=O)N(C)[C@@H](CC(C)C)C(=O)N[C@@H]([C@@H](C)CC)C(=O)N(C)[C@@H](C)C(=O)N2CC[C@H]2C(=O)N1C [Compound 176] ([NMeL]I[NMeA][Aze][NMeS](Propyl)[Sar][hPhe(3-Cl-4-CF3)]P[Ac5c][NMeGly(cPent)][NMeD]-{3Oxa8azabicyclo(3.2.1)octane}; lactam N-11)
Response given: 1.4

Challenge: Give reported IC50 value for CCO[C@@H]1C[C@H]2C(=O)NC3(CCCC3)C(=O)N(C)[C@@H]([C@@H](C)CC)C(=O)N(C)[C@H](C)CC(=O)N(C)[C@@H](CC(C)C)C(=O)N[C@@H]([C@@H](C)CC)C(=O)N(C)[C@@H](C)C(=O)N3CC[C@H]3C(=O)N(CC)[C@@H](Cc3ccc(C(F)(F)F)cc3)C(=O)N(C)CC(=O)N[C@@H](CCc3ccc(C(F)(F)F)c(Cl)c3)C(=O)N2C1 [Compound 932] (cyclo([Ac5c][NMeI][NMedβ3hAla][NMeL]I[NMeA][Aze][NEtPhe(4-CF3)][Sar][hPhe(3-Cl-4-CF3)][Hyp](Et)))
Response given: 5.4
